Catalogue of compounds with associated IC50
Molecular target: Herpes Simplex Virus Ribonucleotide Reductase (HSV RR) (Human herpesvirus 2)
Construct: HSV RR was purified by Baby Hamster Kidney cells that were cultured with HSV2 Strain 186; made in house; host or cells: Baby Hamster Kidney cells infected with HSV2 Strain 186; crude enzyme per Huszar et al., then hydroxyapatite chromatography
Sequence (P89462 whole entry): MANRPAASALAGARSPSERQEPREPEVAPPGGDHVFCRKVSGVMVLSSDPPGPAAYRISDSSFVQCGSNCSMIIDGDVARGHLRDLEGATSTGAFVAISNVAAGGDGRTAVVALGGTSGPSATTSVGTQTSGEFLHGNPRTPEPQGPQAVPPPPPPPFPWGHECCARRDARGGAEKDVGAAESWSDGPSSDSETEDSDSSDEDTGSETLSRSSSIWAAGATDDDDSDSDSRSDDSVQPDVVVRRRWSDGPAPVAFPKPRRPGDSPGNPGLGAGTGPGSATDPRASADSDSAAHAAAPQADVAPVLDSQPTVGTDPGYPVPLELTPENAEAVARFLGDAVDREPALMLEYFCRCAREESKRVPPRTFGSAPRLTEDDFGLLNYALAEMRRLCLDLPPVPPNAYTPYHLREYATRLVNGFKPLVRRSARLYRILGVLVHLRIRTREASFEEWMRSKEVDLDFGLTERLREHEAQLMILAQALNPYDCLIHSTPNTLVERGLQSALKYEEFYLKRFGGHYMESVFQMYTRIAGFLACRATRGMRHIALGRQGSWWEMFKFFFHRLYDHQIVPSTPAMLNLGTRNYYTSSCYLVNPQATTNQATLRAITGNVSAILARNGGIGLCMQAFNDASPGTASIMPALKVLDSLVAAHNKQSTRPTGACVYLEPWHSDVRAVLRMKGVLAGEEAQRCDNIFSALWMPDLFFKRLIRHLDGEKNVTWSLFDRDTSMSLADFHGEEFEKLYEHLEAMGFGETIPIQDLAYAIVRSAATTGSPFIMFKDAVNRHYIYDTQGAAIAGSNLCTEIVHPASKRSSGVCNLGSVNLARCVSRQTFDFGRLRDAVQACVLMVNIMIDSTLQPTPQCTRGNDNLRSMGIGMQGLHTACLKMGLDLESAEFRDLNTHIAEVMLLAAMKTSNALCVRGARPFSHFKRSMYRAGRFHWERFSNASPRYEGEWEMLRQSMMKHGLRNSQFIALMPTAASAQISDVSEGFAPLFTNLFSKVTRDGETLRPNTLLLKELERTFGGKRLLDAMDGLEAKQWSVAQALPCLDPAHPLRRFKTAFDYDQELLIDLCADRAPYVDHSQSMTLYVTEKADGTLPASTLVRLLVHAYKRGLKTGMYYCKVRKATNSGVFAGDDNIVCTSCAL
Test: Assay of inhibition of HSV RR (reduction of tritiated cytidine-diphosphate to deoxyribo-cytidinediphosphate)
Assay type: biochemical, HSV2 Strain 186
Details: 30 minutes at 37° C., dithiothreitol and MgCl2; enzyme not preincubated with inhibitor; read-out: IC50 (μM concentration of peptide producing 50% inhibition of enzyme activity)

CC(C)C[C@H](NC(=O)[C@H](CC(=O)O)NC(=O)[C@@H](CC(N)=O)NC(=O)[C@@H](NC(=O)[C@@H](NC(=O)[C@H](C)NC(=O)CNC(=O)[C@H](C)NC(=O)[C@@H](N)Cc1ccc(O)cc1)C(C)C)C(C)C)C(=O)O	> 620 µM

Shift focus to the following entry.
Any idea what IC50 was measured for CC(C)C[C@H](NC(=O)[C@H](CC(=O)O)NC(=O)[C@H](CC(N)=O)NC(=O)[C@@H](NC(=O)[C@@H](NC(=O)[C@H](C)NC(=O)CNC(=O)[C@H](C)NC(=O)[C@H](N)Cc1ccc(O)cc1)C(C)C)C(C)C)C(=O)O ? 40 µM

====

Attribute: IC50
Biological target: Herpes Simplex Virus Ribonucleotide Reductase (HSV RR) (Human herpesvirus 2)
Construct: HSV RR was purified by Baby Hamster Kidney cells that were cultured with HSV2 Strain 186; made in house; host or cells: Baby Hamster Kidney cells infected with HSV2 Strain 186; crude enzyme per Huszar et al., then hydroxyapatite chromatography
Experiment: Assay of inhibition of HSV RR (reduction of tritiated cytidine-diphosphate to deoxyribo-cytidinediphosphate)
Type: biochemical, HSV2 Strain 186
Details: 30 minutes at 37° C., dithiothreitol and MgCl2; enzyme not preincubated with inhibitor; read-out: IC50 (μM concentration of peptide producing 50% inhibition of enzyme activity)
Non-standard residues stand in square brackets, D forms with d. Residues, ends and D or L forms follow the SMILES beside them.
// units = µM; emit number, no label

CC(C)C[C@H](NC(=O)[C@H](CC(=O)O)NC(=O)[C@H](CC(N)=O)NC(=O)[C@H](NC(=O)[C@@H](NC(=O)[C@H](C)N)C(C)C)C(C)C)C(=O)O [A V dV N D L] (H-AV[dV]NDL-OH)	600
CC(C)C[C@H](NC(=O)[C@H](CC(=O)O)NC(=O)[C@H](CC(N)=O)NC(=O)[C@@H](NC(=O)[C@@H](NC(=O)[C@H](C)NC(=O)[C@@H](C)NC(=O)[C@H](C)NC(=O)[C@@H](N)Cc1ccc(O)cc1)C(C)C)C(C)C)C(=O)O [Y A dA A V V N D L] (H-YA[dA]AVVNDL-OH)	88
CC(C)C[C@H](NC(=O)[C@H](CC(=O)O)NC(=O)[C@@H](CC(N)=O)NC(=O)[C@@H](NC(=O)[C@@H](NC(=O)[C@H](C)N)C(C)C)C(C)C)C(=O)O [A V V dN D L] (H-AVV[dN]DL-OH)	460
CC(C)C[C@H](NC(=O)[C@H](CC(=O)O)NC(=O)[C@H](CC(N)=O)NC(=O)[C@@H](NC(=O)[C@@H](NC(=O)[C@@H](C)NC(=O)CNC(=O)[C@H](C)NC(=O)[C@@H](N)Cc1ccc(O)cc1)C(C)C)C(C)C)C(=O)O [Y A G dA V V N D L]	72

Record CC(C)C[C@H](NC(=O)[C@H](CC(=O)O)NC(=O)[C@H](CC(N)=O)NC(=O)[C@@H](NC(=O)[C@@H](NC(=O)[C@@H](C)N)C(C)C)C(C)C)C(=O)O [dA V V N D L] (H-[dA]VVNDL-OH) : what is its IC50 with Herpes Simplex Virus Ribonucleotide Reductase (HSV RR) (Human herpesvirus 2)? 90

Hello, I am looking for reported IC50 with Herpes Simplex Virus Ribonucleotide Reductase (HSV RR) (Human herpesvirus 2) for CC(C)C[C@H](NC(=O)[C@@H](CC(=O)O)NC(=O)[C@H](CC(N)=O)NC(=O)[C@@H](NC(=O)[C@@H](NC(=O)[C@H](C)N)C(C)C)C(C)C)C(=O)O [A V V N dD L] (H-AVVN[dD]L-OH) . Could you help? 520

Find the measured IC50: item CC(C)C[C@H](NC(=O)[C@H](CC(=O)O)NC(=O)[C@H](CC(N)=O)NC(=O)[C@@H](NC(=O)[C@@H](NC(=O)[C@H](N)Cc1ccc(O)cc1)C(C)C)C(C)C)C(=O)O [dY V V N D L] (H-[dY]VVNDL-OH) , target or system Herpes Simplex Virus Ribonucleotide Reductase (HSV RR) (Human herpesvirus 2). 30
